Biological target: T1, human FM3 (NMUR1) (human)
T1 chain: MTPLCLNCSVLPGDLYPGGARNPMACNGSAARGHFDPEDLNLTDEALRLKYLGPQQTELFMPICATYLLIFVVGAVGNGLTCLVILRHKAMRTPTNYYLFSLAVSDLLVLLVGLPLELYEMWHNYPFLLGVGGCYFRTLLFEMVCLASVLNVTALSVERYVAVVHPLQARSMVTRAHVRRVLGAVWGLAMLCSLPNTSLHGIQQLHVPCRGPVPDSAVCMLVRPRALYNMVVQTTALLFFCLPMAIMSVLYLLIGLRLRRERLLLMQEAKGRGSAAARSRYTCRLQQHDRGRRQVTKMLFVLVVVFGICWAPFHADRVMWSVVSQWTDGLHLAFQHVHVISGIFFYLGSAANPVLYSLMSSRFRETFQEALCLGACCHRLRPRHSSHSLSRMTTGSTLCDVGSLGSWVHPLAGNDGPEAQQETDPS
Experiment: competition with 125I-NMU8, human FM3/CHO membrane fraction, filter binding
*1 amine or outer side, *2 acyl side, *3 side chain or, on linkers, in order; H or OH if unused. KMUS = cross-linking reagent joining N-terminal amine to thiol PEG, O=C1CC([*:3])C(=O)N1CCCCCCCCCCC(=O)[*:2]; SMCC = cross-linking reagent joining N-terminal amine to thiol PEG; AMBz = omega-aminocarboxylic acid linker (structure only drawn)
quantity: log10 IC50 (log10 of the value in nM)
A value of 2 here means IC50 of 100 in nM, since values are log10.

For every record below, what is its log10 IC50?
1. {PEG 30 kDa-KMUS}-YFLFRPRN-NH2 [PEG30k(KMUS)-NMU-8]
2. {PEG 30 kDa-SMCC}-YFLFRPRN-NH2 [PEG30k(SMCC)-NMU-8]
3. {PEG 30 kDa-AMBz}-YFLFRPRN-NH2 (also: PEG attached by reductive amination (NH link) to linker) [PEG30k(NH-AMBz)-NMU-8]

Response:
1. 1.71
2. 0.65
3. 0.83

Reference for the values: patent US20100286035A1
